Assay: self-splicing fitness, log relative to wild type (ln ratio); higher = more splicing; Tetrahymena group I intron in knt gene, E. coli kanamycin selection, DiMSum; sequences stand for … in CUCUCU…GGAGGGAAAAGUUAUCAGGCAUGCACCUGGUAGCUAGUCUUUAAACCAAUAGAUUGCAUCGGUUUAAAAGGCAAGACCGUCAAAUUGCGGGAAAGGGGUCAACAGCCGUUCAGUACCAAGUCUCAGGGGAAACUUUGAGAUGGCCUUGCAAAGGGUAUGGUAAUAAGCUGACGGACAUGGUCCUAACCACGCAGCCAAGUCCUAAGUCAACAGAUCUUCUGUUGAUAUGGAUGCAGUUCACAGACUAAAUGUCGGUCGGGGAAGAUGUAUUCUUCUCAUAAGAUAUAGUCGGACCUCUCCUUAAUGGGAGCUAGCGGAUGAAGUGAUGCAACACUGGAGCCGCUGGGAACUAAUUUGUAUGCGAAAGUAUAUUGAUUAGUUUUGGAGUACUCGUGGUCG;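 note: selection with 25 µg/mL kanamycin versus none on LB agar overnight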
Details: 30 °C
// reported self-splicing fitness (ln) per item
Give the figure by itself; no unit, no explanation.

Sample answers from the record:
Recall and state the measured self-splicing fitness (ln) for ACAAAGCAAUAUUACGGGAG .
-1.72

# return recorded self-splicing fitness (ln) for input CUUGAGCAAUAUUACGAGAC
-2.12

Report self-splicing fitness (ln) for UCCGAGCAAUAUUACGCCGA
-1.56

Input GCCCAGCAAUAUUACGAAAU , output reported self-splicing fitness (ln).
-1.7

Continuing:
For the sequence GACGAGCAAUAUUACGUCAA , report self-splicing fitness (ln).
-3.11

# return recorded self-splicing fitness (ln) for entry UGGCAGCAAUAUUACGGCGU
-1.32
